# experimental-system: Bile salt export pump (Homo sapiens, UniProt O95342); further: assay procedure not described here
# Sequence (O95342 whole entry): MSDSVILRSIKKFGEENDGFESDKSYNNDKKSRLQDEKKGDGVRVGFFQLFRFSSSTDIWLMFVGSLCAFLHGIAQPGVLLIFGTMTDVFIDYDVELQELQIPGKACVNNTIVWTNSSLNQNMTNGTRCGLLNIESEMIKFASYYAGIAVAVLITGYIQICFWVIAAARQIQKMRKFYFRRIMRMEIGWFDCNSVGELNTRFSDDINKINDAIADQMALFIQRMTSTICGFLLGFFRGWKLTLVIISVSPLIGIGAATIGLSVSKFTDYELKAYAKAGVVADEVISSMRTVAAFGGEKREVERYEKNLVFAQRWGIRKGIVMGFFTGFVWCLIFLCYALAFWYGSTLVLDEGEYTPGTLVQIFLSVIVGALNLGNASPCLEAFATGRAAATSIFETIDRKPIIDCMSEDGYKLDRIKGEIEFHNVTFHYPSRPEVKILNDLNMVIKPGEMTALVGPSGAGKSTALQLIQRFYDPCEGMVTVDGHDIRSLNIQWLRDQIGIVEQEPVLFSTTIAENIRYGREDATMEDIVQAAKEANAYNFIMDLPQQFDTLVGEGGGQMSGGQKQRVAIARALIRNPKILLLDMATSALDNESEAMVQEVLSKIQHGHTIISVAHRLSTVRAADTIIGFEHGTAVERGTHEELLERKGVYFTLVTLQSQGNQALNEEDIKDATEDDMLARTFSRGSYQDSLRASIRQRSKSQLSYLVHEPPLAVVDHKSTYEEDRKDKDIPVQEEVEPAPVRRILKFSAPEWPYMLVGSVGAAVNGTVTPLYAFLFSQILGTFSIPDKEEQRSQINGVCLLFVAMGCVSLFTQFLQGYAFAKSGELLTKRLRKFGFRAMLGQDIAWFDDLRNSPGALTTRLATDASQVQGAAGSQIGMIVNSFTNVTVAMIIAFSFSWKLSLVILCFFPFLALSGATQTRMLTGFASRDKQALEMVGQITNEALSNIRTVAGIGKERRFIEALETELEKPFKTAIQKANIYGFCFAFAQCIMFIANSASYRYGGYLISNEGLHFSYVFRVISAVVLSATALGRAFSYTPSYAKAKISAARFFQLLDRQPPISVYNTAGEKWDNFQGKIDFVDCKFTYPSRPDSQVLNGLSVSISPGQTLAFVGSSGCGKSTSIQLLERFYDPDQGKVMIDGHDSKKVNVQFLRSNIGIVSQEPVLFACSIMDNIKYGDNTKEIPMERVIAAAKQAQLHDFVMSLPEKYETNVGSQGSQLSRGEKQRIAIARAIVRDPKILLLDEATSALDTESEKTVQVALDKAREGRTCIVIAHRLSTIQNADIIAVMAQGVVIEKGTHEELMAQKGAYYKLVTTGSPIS
# Format: functional
Form field: AC50 (one value per entry).

Challenge: Please state recorded AC50 (tested on Bile salt export pump (Homo sapiens, UniProt O95342)) of Cn1c(=O)c2c(ncn2CC(O)CO)n(C)c1=O (stereo not drawn); further: assay procedure not described here
Response given: > 300 µM

Challenge: Find the measured AC50: item CCCCCCCCNC(C)C(O)c1ccc(SC(C)C)cc1 (stereo not drawn) , target or system Bile salt export pump (Homo sapiens, UniProt O95342). Further: assay procedure not described here.
Response given: 64 µM

Challenge: Item: CCCCCCCCCCC[C@@H](C[C@@H]1OC(=O)[C@H]1CCCCCC)OC(=O)[C@H](CC(C)C)NC=O Test system: Bile salt export pump (Homo sapiens, UniProt O95342) Read-out: AC50 Value: ?; further: assay procedure not described here
Response given: > 300 µM

###

# experimental-system: Muscarinic acetylcholine receptor M2 (Homo sapiens); further: assay procedure not described here
# Sequence (P08172 whole entry): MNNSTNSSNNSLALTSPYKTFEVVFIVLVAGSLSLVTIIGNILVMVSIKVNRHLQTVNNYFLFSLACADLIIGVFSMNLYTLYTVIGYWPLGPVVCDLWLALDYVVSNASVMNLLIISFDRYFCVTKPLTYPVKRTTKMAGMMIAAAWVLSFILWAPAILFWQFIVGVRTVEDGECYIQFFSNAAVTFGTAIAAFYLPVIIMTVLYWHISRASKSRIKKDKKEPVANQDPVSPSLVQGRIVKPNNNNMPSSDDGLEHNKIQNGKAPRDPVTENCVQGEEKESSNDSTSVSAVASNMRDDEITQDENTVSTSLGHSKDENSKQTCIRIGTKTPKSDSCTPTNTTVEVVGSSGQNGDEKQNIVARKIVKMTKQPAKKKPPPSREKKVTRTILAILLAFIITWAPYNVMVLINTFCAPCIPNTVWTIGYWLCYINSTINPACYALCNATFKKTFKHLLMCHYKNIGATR
# Assay type: functional, cell-based
As shown below, each of these molecules has a reported AC50 value.

[[record]]
molecule = "CO/N=C(\\C(=O)N[C@@H]1C(=O)N2C(C(=O)[O-])=C(C[n+]3cccc4c3CCC4)CS[C@H]12)c1csc(N)n1 [CEFPIROME]"
val = "> 30 µM"


Challenge: Please report the recorded AC50 for O=C(CCCN1CCC(n2c(O)nc3ccccc32)CC1)c1ccc(F)cc1 [BENPERIDOL] .
Response given: 2.64 µM

Challenge: Find the recorded AC50 belonging to NC(=O)c1ncn([C@@H]2O[C@H](CO)[C@@H](O)[C@H]2O)n1 [RIBAVIRIN] and report it.
Response given: > 10 µM

###

# experimental-system: Bile salt export pump (Homo sapiens, UniProt O95342); further: assay procedure not described here
# Assay type: functional
recorded-endpoint: AC50 (µM)
# output: bare number, implied unit µM

# count of solved cases: 2
[[record]]
molecule = "CCOc1cc(CC(=O)N[C@@H](CC(C)C)c2ccccc2N2CCCCC2)ccc1C(=O)O [REPAGLINIDE]"
experimental_system = "Bile salt export pump (Homo sapiens, UniProt O95342)"
val = 9.33

[[record]]
molecule = "CCOc1ccc2ccccc2c1C(=O)N[C@@H]1C(=O)N2[C@@H]1SC(C)(C)[C@@H]2C(=O)O"
experimental_system = "Bile salt export pump (Homo sapiens, UniProt O95342)"
val = 40


Shifting focus to the molecule that follows.
Challenge: // lookup AC50 | system=Bile salt export pump (Homo sapiens, UniProt O95342) | key= Cc1cc(CC(=O)O)n(C)c1C(=O)c1ccc(Cl)cc1 [ZOMEPIRAC]; further: assay procedure not described here
Response given: 72

###

Items are presented alongside their recorded AC50.
# experimental-system: Gamma-aminobutyric acid receptor subunit alpha-1 (Rattus norvegicus); further: assay procedure not described here
# Sequence (P62813 whole entry): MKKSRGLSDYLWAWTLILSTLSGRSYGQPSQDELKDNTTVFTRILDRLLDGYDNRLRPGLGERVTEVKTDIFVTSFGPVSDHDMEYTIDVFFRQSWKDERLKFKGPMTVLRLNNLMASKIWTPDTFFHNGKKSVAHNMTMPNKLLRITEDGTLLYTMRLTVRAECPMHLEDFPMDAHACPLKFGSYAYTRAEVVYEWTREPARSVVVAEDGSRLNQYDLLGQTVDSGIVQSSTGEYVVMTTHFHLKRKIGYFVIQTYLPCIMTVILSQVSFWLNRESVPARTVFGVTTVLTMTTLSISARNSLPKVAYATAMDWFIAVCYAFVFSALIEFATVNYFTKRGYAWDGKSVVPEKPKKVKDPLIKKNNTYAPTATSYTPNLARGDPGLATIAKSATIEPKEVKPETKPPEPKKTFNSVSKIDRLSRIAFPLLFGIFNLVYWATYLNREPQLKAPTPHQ
# Format: functional

Solved cases (5 shown):
[[record]]
molecule = "CN(C)c1cc(NC(=O)CNC(C)(C)C)c(O)c2c1C[C@H]1C[C@H]3[C@H](N(C)C)C(O)=C(C(N)=O)C(=O)[C@@]3(O)C(O)=C1C2=O [TIGECYCLINE]"
experimental_system = "Gamma-aminobutyric acid receptor subunit alpha-1 (Rattus norvegicus)"
recorded_endpoint = "AC50"
val = "> 30 µM"

[[record]]
molecule = "COC(=O)N[C@@H](C)CNc1nccc(-c2cn(C(C)C)nc2-c2cc(Cl)cc(NS(C)(=O)=O)c2F)n1 [ENCORAFENIB]"
experimental_system = "Gamma-aminobutyric acid receptor subunit alpha-1 (Rattus norvegicus)"
recorded_endpoint = "AC50"
val = "23.1 µM"

[[record]]
molecule = "COCCCOc1ccnc(C[S+]([O-])c2nc3ccccc3[nH]2)c1C (configuration not stated) [RABEPRAZOLE]"
experimental_system = "Gamma-aminobutyric acid receptor subunit alpha-1 (Rattus norvegicus)"
recorded_endpoint = "AC50"
val = "> 10 µM"

[[record]]
molecule = "[H]/N=C(/N)N[C@H]1[C@H](O)[C@@H](O)[C@H](O[C@@H]2O[C@@H](C)[C@](O)(C=O)[C@H]2O[C@@H]2O[C@@H](CO)[C@H](O)[C@@H](O)[C@@H]2NC)[C@@H](N/C(N)=N\\[H])[C@@H]1O [STREPTOMYCIN]"
experimental_system = "Gamma-aminobutyric acid receptor subunit alpha-1 (Rattus norvegicus)"
recorded_endpoint = "AC50"
val = "> 30 µM"

[[record]]
molecule = "C[C@]12CC[C@H](O)CC1=CC[C@@H]1[C@@H]2CC[C@]2(C)C(c3cccnc3)=CC[C@@H]12 [ABIRATERONE]"
experimental_system = "Gamma-aminobutyric acid receptor subunit alpha-1 (Rattus norvegicus)"
recorded_endpoint = "AC50"
val = "> 10 µM"


Challenge: Returns the measured AC50 for the input molecule. Input: CC(C)(C)NCC(O)c1cc(Cl)c(N)c(Cl)c1 (configuration not stated) [CLENBUTEROL]
Response given: > 30 µM

Challenge: Requested field: AC50. Item: COc1ccc(/C=C/C(=O)Nc2ccccc2C(=O)O)cc1OC
Response given: > 30 µM

###

# AC50 annotations
# experimental-system: Gamma-aminobutyric acid receptor subunit alpha-1 (Rattus norvegicus); further: assay procedure not described here
# Format: functional

Take a look at these entries with their results.
[[record]]
compound = "O=C(O)c1cc(O)c2c3nc4ccccc4oc-3cc(=O)c2n1"
val = "> 30 µM"

[[record]]
compound = "CCOc1cc(CC(=O)N[C@@H](CC(C)C)c2ccccc2N2CCCCC2)ccc1C(=O)O [REPAGLINIDE]"
val = "> 30 µM"

[[record]]
compound = "Nc1ccc(C(=O)O)c(O)c1"
val = "> 30 µM"

[[record]]
compound = "N[C@H](Cc1cc(I)c(Oc2cc(I)c(O)c(I)c2)c(I)c1)C(=O)O"
val = "> 10 µM"


Challenge: // AC50 lookup, key: O=C(O)c1ccccc1OP(=O)(O)O
Response given: > 30 µM

###

# experimental-system: 3',5'-cyclic-AMP phosphodiesterase 4A (Homo sapiens, UniProt P27815); further: assay procedure not described here
# Sequence (P27815 whole entry): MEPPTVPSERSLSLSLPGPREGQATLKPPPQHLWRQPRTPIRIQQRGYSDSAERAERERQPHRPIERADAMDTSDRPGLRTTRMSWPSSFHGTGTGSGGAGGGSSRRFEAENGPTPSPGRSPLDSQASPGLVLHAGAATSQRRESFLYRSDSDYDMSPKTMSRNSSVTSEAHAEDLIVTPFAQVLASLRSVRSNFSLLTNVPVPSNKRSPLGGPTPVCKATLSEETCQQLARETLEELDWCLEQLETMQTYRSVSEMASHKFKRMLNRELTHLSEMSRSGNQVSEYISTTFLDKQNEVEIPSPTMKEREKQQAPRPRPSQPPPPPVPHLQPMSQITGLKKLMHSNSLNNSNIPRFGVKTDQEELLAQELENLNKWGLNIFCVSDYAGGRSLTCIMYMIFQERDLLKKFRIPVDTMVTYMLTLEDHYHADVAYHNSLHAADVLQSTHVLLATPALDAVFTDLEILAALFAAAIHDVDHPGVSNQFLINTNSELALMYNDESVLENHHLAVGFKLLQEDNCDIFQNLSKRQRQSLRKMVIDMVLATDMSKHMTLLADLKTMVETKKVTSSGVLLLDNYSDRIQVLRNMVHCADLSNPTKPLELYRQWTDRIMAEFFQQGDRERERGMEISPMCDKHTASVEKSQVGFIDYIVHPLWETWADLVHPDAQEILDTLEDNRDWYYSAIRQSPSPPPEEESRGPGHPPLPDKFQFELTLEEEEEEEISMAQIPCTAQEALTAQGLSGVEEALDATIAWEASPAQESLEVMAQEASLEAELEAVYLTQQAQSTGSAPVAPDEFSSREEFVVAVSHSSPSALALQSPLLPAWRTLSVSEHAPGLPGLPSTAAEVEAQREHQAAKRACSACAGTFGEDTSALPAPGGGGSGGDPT
# Assay type: functional
recorded-endpoint: AC50

// worked examples, AC50 included
[[record]]
compound = "CNC[C@H](O)c1cccc(O)c1"
experimental_system = "3',5'-cyclic-AMP phosphodiesterase 4A (Homo sapiens, UniProt P27815)"
val = "> 30 µM"

[[record]]
compound = "CCOc1ccc2ccccc2c1C(=O)N[C@@H]1C(=O)N2[C@@H]1SC(C)(C)[C@@H]2C(=O)O"
experimental_system = "3',5'-cyclic-AMP phosphodiesterase 4A (Homo sapiens, UniProt P27815)"
val = "> 30 µM"


Challenge: Which AC50 value is on record for COC(=O)C1=C(C)NC(C)=C(C(=O)O[C@H]2CCN(Cc3ccccc3)C2)[C@H]1c1cccc([N+](=O)[O-])c1 ?
Response given: > 30 µM

Challenge: Please give the measured AC50 for this compound: C[C@@H](O)[C@H]1C(=O)N2C(C(=O)O)=C([C@H]3CCCO3)S[C@H]12
Response given: > 30 µM

Challenge: Which measured AC50 value corresponds to O=C(NC(Cc1cc(=O)[nH]c2ccccc12)C(=O)O)c1ccc(Cl)cc1 (configuration not stated) [REBAMIPIDE] ?
Response given: > 30 µM

Challenge: # query: AC50 of entry CC(=O)OCC[N+](C)(C)C
Response given: > 30 µM

Challenge: Please look up its AC50: Cc1ccc([C@@H]2O[C@H](CO)[C@@H](O)[C@H](O)[C@H]2O)cc1Cc1ccc(-c2ccc(F)cc2)s1 [CANAGLIFLOZIN ANHYDROUS]
Response given: > 30 µM

Challenge: # AC50 lookup, item O=C(Oc1ccccc1C(=O)O)c1ccccc1O [SALSALATE]
Response given: > 30 µM

Challenge: For the compound shown here, O=C(Nc1cccc2c(=O)cc(-c3nnn[nH]3)oc12)c1ccc(OCCCCc2ccccc2)cc1 , give the reported AC50.
Response given: 8.21 µM

Challenge: What value of AC50 has been recorded for this entry: CN(C)c1cc(CNCC(C)(C)C)c(O)c2c1C[C@H]1C[C@H]3[C@H](N(C)C)C(O)=C(C(N)=O)C(=O)[C@@]3(O)C(O)=C1C2=O
Response given: > 30 µM

###

# experimental-system: UniProtKB Q01959
# Sequence (Q01959 whole entry): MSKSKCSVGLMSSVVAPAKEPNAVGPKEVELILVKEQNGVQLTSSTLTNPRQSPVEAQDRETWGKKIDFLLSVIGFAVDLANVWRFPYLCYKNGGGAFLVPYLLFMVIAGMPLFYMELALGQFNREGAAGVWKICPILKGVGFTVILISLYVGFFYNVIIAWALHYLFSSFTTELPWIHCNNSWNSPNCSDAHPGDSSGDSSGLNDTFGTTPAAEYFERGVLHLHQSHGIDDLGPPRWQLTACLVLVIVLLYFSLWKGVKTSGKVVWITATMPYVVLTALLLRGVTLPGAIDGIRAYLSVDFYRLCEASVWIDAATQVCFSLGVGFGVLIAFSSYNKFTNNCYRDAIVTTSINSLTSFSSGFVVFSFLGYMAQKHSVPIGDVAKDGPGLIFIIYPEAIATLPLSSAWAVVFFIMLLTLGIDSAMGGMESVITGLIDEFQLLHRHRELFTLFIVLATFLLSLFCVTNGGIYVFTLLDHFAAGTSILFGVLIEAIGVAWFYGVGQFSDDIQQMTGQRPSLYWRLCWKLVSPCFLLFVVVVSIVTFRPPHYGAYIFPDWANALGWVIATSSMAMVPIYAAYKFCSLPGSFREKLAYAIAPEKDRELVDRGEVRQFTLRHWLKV
*1 amine or outer side, *2 acyl side, *3 side chain or, on linkers, in order; H or OH if unused. Where a SMILES comes first, the peptide text is derived from it. Bridges are numbered along the chain shown (N, C = ends). [ ]: non-standard residue; d: D form. The star is where a group is joined. hTyr(3S-OH,4S-OH,3'-OSO3H) = N[C@H](C(=O)O)[C@H](O)[C@@H](O)c1ccc(O)c(OS(=O)(=O)O)c1; Orn(4R-OH,5R-OH) = O=C([C@H](C[C@@H](O)[C@@H](O)N[*:3])N[*:1])[*:2]; Pro(3S-OH,4S-Me) = C[C@H]1CN[C@H](C(=O)O)[C@H]1O; X1 = CCCCCOc1ccc(-c2cc(-c3ccc(C(=O)*)cc3)no2)cc1; Gln(3R-OH) = NC(=O)C[C@@H](O)[C@H](N)C(=O)O; Hyp = O=C(O)[C@@H]1C[C@@H](O)CN1
recorded-endpoint: AC50

Here are 4 compounds together with their reported answers.
[[record]]
compound = "CCCCCOc1ccc(-c2cc(-c3ccc(C(=O)N[C@H]4C[C@@H](O)[C@@H](O)NC(=O)[C@@H]5[C@@H](O)[C@@H](C)CN5C(=O)[C@H]([C@H](O)CC(N)=O)NC(=O)[C@H]([C@H](O)[C@@H](O)c5ccc(O)c(OS(=O)(=O)O)c5)NC(=O)[C@@H]5C[C@@H](O)CN5C(=O)[C@H]([C@@H](C)O)NC4=O)cc3)no2)cc1 [MICAFUNGIN] (X1-[Orn(4R-OH,5R-OH)]T[Hyp][hTyr(3S-OH,4S-OH,3'-OSO3H)][Gln(3R-OH)][Pro(3S-OH,4S-Me)]; lactam 1-C)"
val = "21.7 µM"

[[record]]
compound = "O=C(CCCN1CC=C(n2c(=O)[nH]c3ccccc32)CC1)c1ccc(F)cc1 [DROPERIDOL]"
val = "> 30 µM"

[[record]]
compound = "N[C@@H](Cc1c[nH]c2ccc(O)cc12)C(=O)O [OXITRIPTAN]"
val = "> 30 µM"

[[record]]
compound = "COC(=O)C1=C(C)NC(C)=C(C(=O)O[C@H]2CCN(Cc3ccccc3)C2)[C@H]1c1cccc([N+](=O)[O-])c1 [BARNIDIPINE]"
val = "1.9 µM"


Challenge: Requested read-out: AC50. Entry: COc1nccnc1NS(=O)(=O)c1ccc(N)cc1
Response given: > 30 µM

Challenge: # AC50 lookup, item C[C@H](N)C(=O)O [ALANINE]
Response given: > 30 µM
